The reader will find reported IC50 values listed item by item below.
target: purified ovine COX-1 (Ovis aries, UniProt P05979); assay: COX-1 colorimetric enzyme assay with purified isozyme; type: biochemical; conditions: read-out: COX-1 IC50; purified COX-1 isozyme, arachidonic acid, 25°C, 5 min
Sequence (P05979 25-600): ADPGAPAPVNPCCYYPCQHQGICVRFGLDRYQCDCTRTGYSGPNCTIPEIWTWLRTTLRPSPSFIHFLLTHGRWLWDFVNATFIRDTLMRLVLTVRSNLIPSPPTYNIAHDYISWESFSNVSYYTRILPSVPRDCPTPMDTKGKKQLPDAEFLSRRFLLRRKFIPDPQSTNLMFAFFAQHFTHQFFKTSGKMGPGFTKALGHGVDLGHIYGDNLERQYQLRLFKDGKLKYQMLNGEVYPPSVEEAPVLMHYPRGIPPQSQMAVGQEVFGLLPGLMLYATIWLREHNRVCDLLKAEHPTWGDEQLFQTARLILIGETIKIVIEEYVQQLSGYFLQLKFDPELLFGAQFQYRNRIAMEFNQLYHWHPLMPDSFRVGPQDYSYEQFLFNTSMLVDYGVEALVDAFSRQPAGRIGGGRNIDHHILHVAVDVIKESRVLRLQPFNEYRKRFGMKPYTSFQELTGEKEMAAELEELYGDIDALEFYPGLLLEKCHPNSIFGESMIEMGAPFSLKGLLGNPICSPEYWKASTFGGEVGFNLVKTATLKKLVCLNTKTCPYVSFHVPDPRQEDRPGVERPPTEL

MOLECULE | TARGET UNDER TEST | MEASURED ENDPOINT | VAL
CSc1ccc(/C=C2/C(C)=C(CC(=O)NCCN(C)C)c3cc(F)ccc32)cc1 [SSA] | purified ovine COX-1 (Ovis aries, UniProt P05979) | IC50 | > 300 µM

Reading of IC50 for CC1=C(CC(=O)O)c2cc(F)ccc2/C1=C\c1ccc([S+](C)[O-])cc1 (centres unmarked) [Sulindac sulfoxide, sulindac] with purified ovine COX-1 (Ovis aries, UniProt P05979): > 300 µM
